# TEST_DETAILS: protein stability index of a GFP-peptide fusion (yeast GPS) (PSI 1-4); higher = more stable; sorted into four equal gates, so the index is relative within each strain
# CONDITION_DETAILS: pdr5∆
Class yes (1): protein stability index at least 3. Class no (0): protein stability index below 3.

MONOMER_SEQUENCE	CLASS_NAME
KTQFSWQYYYYTLTEEG [RPS10A]	no (0)
TDRITRLFIKPGQKMSL [BRN1]	no (0)
SVPIWVDTSTELESMLE [RRP6]	yes (1)
QWTGGRGGGHHSFEDAH [FAS1]	yes (1)
TSAASGDAAPAEEAAAE [RPP0]	yes (1)

Origin of values: the supplement of paper PMC9732359
